- assay-details: Biodistribution
- Assay type: in vivo, mice
- assay-conditions: athymic nude, mouse, liver, iv, 10 nmol
outcome-measure: tissue uptake dose at 0.5 h (%ID)
Numeric only. Scale: %ID

Report tissue uptake dose at 0.5 h for CCN1C(=CC=CC=CC2=[N+](CCCCCC(=O)NCCN3C(=O)CC(SC[C@@H](NC(=O)[C@@H](CCCNC(=N)N)NC(=O)[C@@H](CCCNC(=N)N)NC(=O)[C@@H](CCCNC(=N)N)NC(=O)[C@@H](CCCNC(=N)N)NC(=O)[C@@H](CCCNC(=N)N)NC(=O)[C@@H](CCCNC(=N)N)NC(=O)[C@@H](CCCNC(=N)N)NC(=O)[C@@H](CCCNC(=N)N)NC(=O)[C@H](N)CCCNC(=N)N)C(N)=O)C3=O)c3ccc(S(=O)(=O)[O-])cc3C2(C)C)C(C)(C)c2cc(S(=O)(=O)O)ccc21 (stereo partly shown) please.
90

Source listed as paper PMC2796831.
